Test system: 786-0 renal
Test: NCI-60 one-dose screen, 48 h (100 = growth as untreated, 0 = no growth, -100 = all killed)
Conditions: 10 µM unless noted
This is part of a sample that, as a whole, favours compounds with a hit. Of some 83,000 tested, about 20% had one in any assay.
MEASURED QUANTITY: growth (%)

MOLECULE	EXPERIMENTAL RESULT
N#CC1=C(N)Oc2c(c(=O)[nH]c3ccc(Cl)cc23)C12C(=O)c1ccccc1C2=O	96.4
COc1ccc(C(=O)/C=C/c2c(C(F)(F)F)nc3ccccn23)cc1OC	10.3
CCOC(=O)C1=C(c2ccccc2)N=C2SC=C(c3ccc(Cl)cc3)N2C1c1ccc(Cl)cc1 (centres undefined)	84.4
COc1ccc2c(c1OC)CO[C@@H]2[C@H]1c2c(cc3c(c2OC)OCO3)CCN1S(=O)(=O)c1cn(C)cn1	41.9
Cc1nc2sc(C(=O)Nc3cccc4ccccc34)c(N)c2cc1C(O)c1ccccc1 (centres undefined)	16.1
COc1cc2c(c(OC)c1OC)CCC(c1cccc(C(=O)Nc3ccc(C#N)cc3)c1)O2 (centres undefined)	80.6
Nc1cc(C(=O)NC[C@H]2CN(c3ccc(N4CCC(C(=O)O)CC4)cc3)C(=O)O2)ccc1Cl	101
O=C(O)c1cn(C2CC2)c2cc(N3CCN(Cc4ccc5ccccc5c4O)CC3)c(F)cc2c1=O	38.3
CC1(C)CC(=O)C2=C(C1)N(c1ccc(OC(F)(F)F)cc1)C(N)=C(C#N)C2c1ccc(Br)cc1F (centres undefined)	35.7
